Sourced from the RNAGym collection of RNA variant scans (doi:10.7554/elife.90254)

B1: LINE1-full (parent)
chain: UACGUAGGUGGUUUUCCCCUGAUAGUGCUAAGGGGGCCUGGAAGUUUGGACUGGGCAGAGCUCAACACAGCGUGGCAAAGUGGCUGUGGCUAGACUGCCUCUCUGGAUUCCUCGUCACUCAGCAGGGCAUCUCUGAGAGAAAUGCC

# Variants of: B1
# Procedure text: self-cleavage, relative activity (ratio to wild type); higher = more cleavage; in vitro, sequencing; the parent is a self-cleaving ribozyme
Quantity name: self-cleavage

# annotated cases, reported self-cleavage shown
>  <Variant spec>
C95A U143C

>  <Quantity name>
self-cleavage

>  <Reported measurement>
0.08

$$$$
>  <Variant spec>
G122A

>  <Quantity name>
self-cleavage

>  <Reported measurement>
1.13

$$$$
>  <Variant spec>
G25U G49U

>  <Quantity name>
self-cleavage

>  <Reported measurement>
1.21

$$$$
>  <Variant spec>
U115C C146G

>  <Quantity name>
self-cleavage

>  <Reported measurement>
1.93

$$$$
>  <Variant spec>
C18U G144A

>  <Quantity name>
self-cleavage

>  <Reported measurement>
0.75

$$$$
>  <Variant spec>
G34A A57G

>  <Quantity name>
self-cleavage

>  <Reported measurement>
1.21

$$$$
>  <Variant spec>
U73A C84U

>  <Quantity name>
self-cleavage

>  <Reported measurement>
0.16

$$$$
>  <Variant spec>
G7A U87A

>  <Quantity name>
self-cleavage

>  <Reported measurement>
0.04

$$$$
>  <Variant spec>
A50G C118U

>  <Quantity name>
self-cleavage

>  <Reported measurement>
0.71

$$$$
>  <Variant spec>
A22U U26A

>  <Quantity name>
self-cleavage

>  <Reported measurement>
0.5

$$$$

Quick one: self-cleavage of U47C G54U ?
1.48
